Source: patent US9951028B2

Exercise: state measured Average of corrected necrosis for each of the molecules provided.
# Tested on: Abutilon theophrasti (China Jute)
# assayDetails: Herbicidal efficacy screen, corrected necrosis
# Assay type: in vivo
# settings: 12.5 g/ha, day 1 post application

>>> reportedmeasurement("CC(C)C(C)S(=O)(=O)NC(=O)c1cc(-n2c(=O)cc(C(F)(F)F)n(C)c2=O)c(F)cc1Cl (stereo not shown)")
"0%"

Input line: Would you mind telling me what Average of corrected necrosis value was observed for CC(C)C(C)S(=O)(=O)NCc1cc(-n2c(=O)cc(C(F)(F)F)n(C)c2=O)c(F)cc1Cl (stereo not shown) ?
Output line: 0%

###

# System: Abutilon theophrasti (China Jute)
# assayDetails: Herbicidal efficacy screen, corrected necrosis
# Format: in vivo
# settings: 50 g/ha, day 1 post application
readoutLabel: Average of corrected necrosis

Input line: Would you mind telling me what Average of corrected necrosis value was observed for CC(C)C(C)S(=O)(=O)NCc1cc(-n2c(=O)cc(C(F)(F)F)n(C)c2=O)c(F)cc1Cl (stereo not shown) ?
Output line: 0%

###

# Tested on: Abutilon theophrasti (China Jute)
# assayDetails: Herbicidal efficacy screen, corrected necrosis
# Format: in vivo
# settings: 6.25 g/ha, day 1 post application
readoutLabel: Average of corrected necrosis

Input line: Would you mind telling me what Average of corrected necrosis value was observed for CC(C)C(C)S(=O)(=O)NCc1cc(-n2c(=O)cc(C(F)(F)F)n(C)c2=O)c(F)cc1Cl (stereo not shown) ?
Output line: 0%

###

# Test system: Capsella bursa-pastoris, (shepherd's-purse)
# assayDetails: Herbicidal efficacy screen, corrected necrosis
# Format: in vivo
# settings: 12.5 g/ha, day 1 post application
Exercise: state measured Average of corrected necrosis for each of the molecules provided.
One number for each entry, in %.

>>> reportedmeasurement("CC(C)C(C)S(=O)(=O)NCc1cc(-n2c(=O)cc(C(F)(F)F)n(C)c2=O)c(F)cc1Cl (stereo not shown)")
0

Input line: Would you mind telling me what Average of corrected necrosis value was observed for CC(C)N(C)S(=O)(=O)NC(=O)c1cc(-n2c(=O)cc(C(F)(F)F)n(C)c2=O)c(F)cc1Cl [Compound 25, reference compound] ?
Output line: 0

###

# Test system: Capsella bursa-pastoris, (shepherd's-purse)
# assayDetails: Herbicidal efficacy screen, corrected necrosis
# Assay type: in vivo
# settings: 25 g/ha, day 1 post application
# Procedure: Plants were obtained as seeds and were grown to the 2-4 true leaf stage. Plants were grown under laboratory conditions, individually in seed trays. Each plant (in an approximately 3 cm diameter plug) was then detached from the tray for spraying. The compounds were screened at a range of five concentrations, diluted in acetone and Tween™. […] The growth of the plants and any Phytotoxicity effects were then assessed at intervals over 21 days, according to EPPO guideline PP1/135. […]
readoutLabel: Average of corrected necrosis

Input line: Look up Average of corrected necrosis with Capsella bursa-pastoris, (shepherd's-purse) for this compound: CC(C)N(C)S(=O)(=O)NC(=O)c1cc(-n2c(=O)cc(C(F)(F)F)n(C)c2=O)c(F)cc1Cl [Compound 25, reference compound]
Output line: 0%
